B1: ZNF263 (parent)
chain: QPKKLHLCPLCGKNFSNNSNLIRH

# Variants of: B1
# assay.procedure: protein stability index of a GFP-peptide fusion (GPS, HEK-293T) (PSI 1-6); higher = more stable;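 also: lentivirally expressed fusions sorted by FACS into six bins by GFP to DsRed ratio, PSI derived from sequencing read proportions per bin multiplied by bin number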
# experimental.conditions: c terminus: a fixed tail appended
reported.endpoint: protein stability index
Keep it simple and answer with nothing but the number.

{"columns": ["alteration", "reported.endpoint", "recorded.measurement"],
 "data": [
  ["N20T", "protein stability index", 2.94],
  ["C8K", "protein stability index", 2.46],
  ["H6W", "protein stability index", 2.05]
]}

Lab note: `P9L` gave protein stability index of 2.21

Noted for `S16F` : its protein stability index reads 2.48

protein stability index in this record for `K3I` : 2.78

Form: variant = `F15V` ; protein stability index = 1.82
